Hi there, I'd appreciate the recorded growth for every entry that follows.
Tested on: CCRF-CEM leukemia
Test: NCI-60 one-dose screen, 48 h (100 = growth as untreated, 0 = no growth, -100 = all killed)
Details: 10 µM
The panel holds about 83,000 compounds, 20% with a hit somewhere; the sample as a whole holds those more often.
Numbers only, in %.

// known answers, use as guide
Compound: CC(CCN1CCN(CCC(C)CC(C)(C)C)C1CC(C)CC(C)(C)C)CC(C)(C)C (stereo not given)
growth (%): 83.1
--
Compound: CC(=O)Nc1nc(C)c(C(=O)N/N=C/c2cccs2)s1
growth (%): 84.6
--
Compound: Nc1cc2c(cc1Br)[nH]c(=O)c1ccccc12
growth (%): 47.1
--
Compound: Nc1nc2c(c3cnccc13)C(c1cccc(Br)c1)Cc1cnccc1-2 (stereo not given)
growth (%): 6.84
--
Compound: CCc1c(C)c2ccc(OCC(=O)N=Nc3c(O)[nH]c4ccccc34)c(C)c2oc1=O
growth (%): 10.3
--
Compound: Cc1ccc(S(=O)(=O)N/N=C2\CC3CCC2C3)cc1 (stereo not given)
growth (%): 100

Kindly give each listed record's growth.
1. Cc1ccc(C(=O)Nc2ccc(CN3CCN(C)CC3)c(C(F)(F)F)c2)cc1C#Cc1cnc(N)c2ccc(F)cc12
2. CCOc1ccc2nc3ccc(Cl)cc3nc2c1
3. CC([C@H]1CCC2C3CCC4C[C@@H](N)CC[C@]4(C)C3CC[C@@]21C)N(C)C (stereo not given in full)
4. CC(C)(C)c1ccc([I+]c2ccc(C(C)(C)C)cc2)cc1

a:
1. -58.7
2. -0.816
3. 42.3
4. 9.22
